Ok so here's the combined literature set: Kd for Heat shock protein HSP 90-alpha (Homo sapiens, UniProt P07900).

{"columns": ["smiles-str", "target-system", "bound-type", "Kd (µM)"],
 "data": [
  ["CCCOc1ccccc1Cn1ccnc1CCc1c(Cl)c(O)cc(O)c1C(=O)OC", "Heat shock protein HSP 90-alpha (Homo sapiens, UniProt P07900)", "=", 2.3],
  ["Cc1cc(C)c2cc1C(=O)NCCCC(=O)NCCSc1cc-2nc(N)n1", "Heat shock protein HSP 90-alpha (Homo sapiens, UniProt P07900)", "=", 0.00065],
  ["COc1cccc(Sc2cc(C(=O)N3Cc4ccccc4C3)c(O)cc2O)c1", "Heat shock protein HSP 90-alpha (Homo sapiens, UniProt P07900)", "=", 0.037],
  ["COC(=O)c1c(O)cc(O)c(Cl)c1CCc1nccn1Cc1ccc(C#N)cc1", "Heat shock protein HSP 90-alpha (Homo sapiens, UniProt P07900)", "=", 18.2],
  ["O=C(c1cc(Sc2cc(Cl)cc(Cl)c2)c(O)cc1O)N1Cc2ccccc2C1", "Heat shock protein HSP 90-alpha (Homo sapiens, UniProt P07900)", "=", 0.029],
  ["COC(=O)c1c(O)cc(O)c(Cl)c1CCc1nccn1Cc1ccccc1C(F)(F)F", "Heat shock protein HSP 90-alpha (Homo sapiens, UniProt P07900)", "=", 19.3],
  ["COC(=O)c1cc(C(=O)N2Cc3ccccc3C2)c(O)cc1O", "Heat shock protein HSP 90-alpha (Homo sapiens, UniProt P07900)", ">", 10],
  ["O=C(c1cc(N2CCc3ccccc32)c(O)cc1O)N1Cc2ccccc2C1", "Heat shock protein HSP 90-alpha (Homo sapiens, UniProt P07900)", ">", 50],
  ["COC(=O)c1c(O)cc(O)c(Cl)c1CCc1nccn1Cc1ccco1", "Heat shock protein HSP 90-alpha (Homo sapiens, UniProt P07900)", "=", 5.91],
  ["O=C(c1cc(Cc2ccccc2Cl)c(O)cc1O)N1Cc2ccccc2C1", "Heat shock protein HSP 90-alpha (Homo sapiens, UniProt P07900)", "=", 0.2],
  ["COC(=O)c1c(O)cc(O)c(Cl)c1CCc1nccn1Cc1sccc1Cl", "Heat shock protein HSP 90-alpha (Homo sapiens, UniProt P07900)", "=", 3.16],
  ["COC(=O)c1c(O)cc(O)c(Cl)c1CCc1nccn1Cc1cc(Cl)cs1", "Heat shock protein HSP 90-alpha (Homo sapiens, UniProt P07900)", "=", 1.8],
  ["Cc1cc(C)c2cc1C(=O)NCCOC(=O)NCCSc1cc-2nc(N)n1", "Heat shock protein HSP 90-alpha (Homo sapiens, UniProt P07900)", "=", 0.0007],
  ["O=C(c1cc(Cc2ccc(F)cc2)c(O)cc1O)N1Cc2ccccc2C1", "Heat shock protein HSP 90-alpha (Homo sapiens, UniProt P07900)", "=", 0.077],
  ["COc1cc(C)c2cc1C(=O)NCCCOc1cccc(c1)Sc1cc-2nc(N)n1", "Heat shock protein HSP 90-alpha (Homo sapiens, UniProt P07900)", "=", 0.0058],
  ["Nc1nc2cc(n1)-c1cc(c(Cl)cc1Cl)OCCCCOc1cccc(c1)S2", "Heat shock protein HSP 90-alpha (Homo sapiens, UniProt P07900)", "=", 0.011],
  ["Nc1ncnc2c1nc(Sc1cc3c(cc1I)OCO3)n2CCCNC(=S)Nc1ccc(-c2c3ccc(=O)cc-3oc3cc(O)ccc23)c(C(=O)O)c1", "Heat shock protein HSP 90-alpha (Homo sapiens, UniProt P07900)", "=", 0.0014],
  ["COC(=O)c1c(O)cc(O)c(Cl)c1CCc1nccn1Cc1nccs1", "Heat shock protein HSP 90-alpha (Homo sapiens, UniProt P07900)", "=", 16],
  ["COC(=O)c1c(O)cc(O)c(Cl)c1CCc1nccn1Cc1ccccc1OC(C)C", "Heat shock protein HSP 90-alpha (Homo sapiens, UniProt P07900)", "=", 0.24],
  ["CCOc1ccccc1Cn1ccnc1CCc1c(Cl)c(O)cc(O)c1C(=O)OC", "Heat shock protein HSP 90-alpha (Homo sapiens, UniProt P07900)", "=", 8.2],
  ["CSc1nc(N)nc(-c2ccc3c4c(cc(Cl)cc24)COC3)n1", "Heat shock protein HSP 90-alpha (Homo sapiens, UniProt P07900)", "=", 0.0034]
]}
